# Measured On: recombinant apoaequorin (Aequorea victoria, UniProt P07164)
# Sequence (P07164 other isoform, or with tags, fused parts or gaps with the stated changes): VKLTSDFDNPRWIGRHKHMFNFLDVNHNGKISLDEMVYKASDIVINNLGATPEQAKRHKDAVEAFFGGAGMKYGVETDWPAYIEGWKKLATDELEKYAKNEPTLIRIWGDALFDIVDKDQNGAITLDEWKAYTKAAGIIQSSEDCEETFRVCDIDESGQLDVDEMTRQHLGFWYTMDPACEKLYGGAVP
# Test: Emission spectra of semi-synthetic aequorins by addition of calcium ions
# Stated Conditions: semi-synthetic aequorin, 22 to 25° C.
Overview of reported Maximum emission wavelength λmax (nm) across a group of compounds:
# number only, unit nm dropped from output

Worked set:
{"columns": ["Compound", "Maximum emission wavelength λmax (nm)"],
 "data": [
  ["Cc1cccc(Cc2nc3c(Cc4ccccc4)[nH]c(-c4ccc(O)cc4)cn-3c2=O)c1", 466.0],
  ["O=c1c(Cc2cccc(O)c2)nc2c(Cc3ccccc3)[nH]c(-c3ccc(O)cc3)cn1-2", 464.0],
  ["COc1ccc(Cc2nc3c(Cc4ccccc4)[nH]c(-c4ccc(O)cc4)cn-3c2=O)cc1", 469.0],
  ["COc1cccc(Cc2nc3c(Cc4ccccc4)[nH]c(-c4ccc(O)cc4)cn-3c2=O)c1", 466.0],
  ["O=c1c(Cc2ccc(C(F)(F)F)cc2)nc2c(Cc3ccccc3)[nH]c(-c3ccc(O)cc3)cn1-2", 473.5],
  ["Cc1ccc(Cc2nc3c(Cc4ccccc4)[nH]c(-c4ccc(O)cc4)cn-3c2=O)cc1", 469.5]
]}

Q: Which Maximum emission wavelength λmax (nm) is listed for Oc1ccc(-c2cn3c(O)c(Cc4ccccc4)nc3c(Cc3ccccc3)n2)cc1 [h-CTZ, h-coelenterazine, reference compound] ?
Ans: 465.5

Q: Record request: Maximum emission wavelength λmax (nm) value, item CC(c1ccccc1)c1nc2c(Cc3ccccc3)[nH]c(-c3ccc(O)cc3)cn-2c1=O (centres unmarked)
Ans: 467.5

----------
# Measured On: Renilla luciferase (Renilla reniformis, UniProt P27652)
# Construct: made in house
# Sequence (P27652 whole entry): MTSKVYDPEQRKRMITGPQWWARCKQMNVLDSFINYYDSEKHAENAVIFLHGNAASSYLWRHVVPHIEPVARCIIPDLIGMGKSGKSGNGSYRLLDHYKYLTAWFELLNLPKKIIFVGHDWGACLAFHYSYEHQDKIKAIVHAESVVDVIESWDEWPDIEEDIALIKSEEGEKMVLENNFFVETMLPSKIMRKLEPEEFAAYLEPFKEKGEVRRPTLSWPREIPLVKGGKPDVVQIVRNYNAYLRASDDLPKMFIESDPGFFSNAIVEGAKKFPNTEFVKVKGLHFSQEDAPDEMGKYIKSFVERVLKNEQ
# Test: Substrate specificity, luminescence activity and emission spectra of Renilla luciferase
# Type: biochemical
# Stated Conditions: Renilla luciferase, 22 to 25° C.
Let's look at some compounds and their measured Maximum emission wavelength λmax (nm).
Numeric answer only, unit nm assumed.

{"columns": ["Compound", "Maximum emission wavelength λmax (nm)"],
 "data": [
  ["COc1ccc(Cc2nc3c(Cc4ccccc4)[nH]c(-c4ccc(O)cc4)cn-3c2=O)cc1 [meo-CTZ, meo-coelenterazine]", 472.5],
  ["COc1cccc(Cc2nc3c(Cc4ccccc4)[nH]c(-c4ccc(O)cc4)cn-3c2=O)c1 [3meo-CTZ, 3meo-coelenterazine]", 473.5],
  ["O=c1c(Cc2cccc(O)c2)nc2c(Cc3ccccc3)[nH]c(-c3ccc(O)cc3)cn1-2 [3iso-CTZ, 3-isocoelenterazine]", 472.0]
]}

Q: So what's the measured Maximum emission wavelength λmax (nm) for this one? Cc1ccc(Cc2nc3c(Cc4ccccc4)[nH]c(-c4ccc(O)cc4)cn-3c2=O)cc1 [me-CTZ, me-coelenterazine]
Ans: 472.0

Q: Reported Maximum emission wavelength λmax (nm), compound O=c1c(Cc2ccc(C(F)(F)F)cc2)nc2c(Cc3ccccc3)[nH]c(-c3ccc(O)cc3)cn1-2 [cf3-CTZ, cf3-coelenterazine] : ____
Ans: 474.5

Q: Quick one: Maximum emission wavelength λmax (nm) for Cc1cccc(Cc2nc3c(Cc4ccccc4)[nH]c(-c4ccc(O)cc4)cn-3c2=O)c1 [3me-CTZ, 3me-coelenterazine] ?
Ans: 471.5

Q: So what does the record say about Maximum emission wavelength λmax (nm) for Oc1ccc(-c2cn3c(O)c(Cc4ccccc4)nc3c(Cc3ccccc3)n2)cc1 [h-CTZ, h-coelenterazine, reference compound] ?
Ans: 472.5

Source listed as patent US9645128B2.
